Where these numbers come from: PubChem BioAssay (EPA / NIEHS)

read-out: CYP2E1 (gene 1571); test: LTEA_HepaRG_CYP2E1: Life Technologies and Expression Analysis (LTEA) Assay for CYP2E1 using HepaRG (AID 2283485); settings: mRNA level, 48 h; actives raise or lower the signal
Active and inactive are the calls of the source. Rule for the calls: active = hit-call score of the fitted dose curve at least 0.9, where 1 is the maximum; inactive = score below 0.9.
Give one outcome, nothing more. List: active, inactive

MOLECULE	GROUP
Cc1nc(C)nc(N2C[C@@H](C)N(c3ccnc([C@@H](C)O)n3)[C@@H](C)C2)n1	inactive

Record lookup: outcome of this test for CC(=O)C(C)=CC1C(C)=CCCC1(C)C (stereo not given) ?
inactive

Record lookup: outcome of this test for COCCOCCOC ?
inactive

Record lookup: outcome of this test for OC[C@@H](O)[C@@H](O)[C@H](O)[C@H](O)CO ?
inactive

Record lookup: outcome of this test for CN1CCCC1=O ?
inactive

Record lookup: outcome of this test for Nc1ccc2c(c1)C(=O)c1ccccc1C2=O ?
active

Record lookup: outcome of this test for Nc1nc(N)c2nc(CNc3ccc(C(=O)N[C@@H](CCC(=O)O)C(=O)O)cc3)cnc2n1 ?
active

Record lookup: outcome of this test for CC1(C)NC(=O)NC1=O ?
inactive

###

test: ATG_ERE_CIS: Attagene CIS-FACTORIAL HepG2 Assay for Estrogen Response Element (ERE) (AID 2282940); details: HepG2 ERE cis-reporter, Attagene RNA transcript; actives raise or lower the signal
The source made the active and inactive calls. The calls were made as follows: active = hit-call score of the fitted dose curve at least 0.9, where 1 is the maximum; inactive = score below 0.9.
Give one outcome, nothing more. List: 1 = active, -1 = inactive

Record lookup: outcome of this test for Cc1ccc(C)c(C)c1 ?
-1

Record lookup: outcome of this test for O=C(OCCCCCOC(=O)c1ccccc1)c1ccccc1 ?
-1

Record lookup: outcome of this test for FC(F)(F)C(F)(F)C(F)(F)C(F)(F)C(F)(F)C(F)(F)CCI ?
-1

Record lookup: outcome of this test for O=C(O)Cc1ccccc1Nc1c(Cl)cccc1Cl ?
-1

Record lookup: outcome of this test for CCCCCCCCCCCC(=O)OC ?
-1

Record lookup: outcome of this test for Nc1ccccc1N ?
-1

Record lookup: outcome of this test for NS(=O)(=O)c1cc2c(cc1Cl)NCNS2(=O)=O ?
-1

Record lookup: outcome of this test for Cc1c(C(=O)O)c(O)cc2c1C(=O)c1c(O)c([C@@H]3O[C@H](CO)[C@@H](O)[C@H](O)[C@H]3O)c(O)c(O)c1C2=O ?
-1

Record lookup: outcome of this test for CNC(=O)[C@H]1O[C@@H](n2cnc3c(NCc4cc(Cl)ccc4OCc4cc(C)no4)ncnc32)[C@H](O)[C@@H]1N ?
-1

Record lookup: outcome of this test for Clc1cc(Cl)c(Cl)cc1Cl ?
-1

Record lookup: outcome of this test for Nc1ccc2c(c1)C(=O)c1ccccc1C2=O ?
1

Record lookup: outcome of this test for COc1cccc2c1C(=O)c1c(O)c3c(c(O)c1C2=O)C[C@@](O)(C(=O)CO)C[C@@H]3O[C@H]1C[C@H](N)[C@H](O)[C@H](C)O1 ?
-1

Record lookup: outcome of this test for CC(C)c1ccc(C(=O)N=C(N)N)cc1S(C)(=O)=O ?
1

Record lookup: outcome of this test for Cc1cccc(Nc2cc(Cl)nc(SCC(=O)O)n2)c1C ?
-1

###

Read-out: Cytochrome P450 (CYP1A2), CYP1A2 (gene 1544)
Test: LTEA_HepaRG_CYP1A2: Life Technologies and Expression Analysis (LTEA) Assay for Cytochrome P450 (CYP1A2) using HepaRG (AID 2283479)
Conditions: mRNA level, 48 h; actives raise or lower the signal
Protocol: LTEA_HepaRG is a cell based, multiplexed-readout assay that uses HepaRG, a human liver cell line, with measurements taken at 48 hours after chemical dosing on a 96-well plate.LTEA_HepaRG_CYP1A2 is one of 102 assay component(s) measured in the LTEA HepaRG cell culture assay. It is a marker of NR mediated metabolism.Data from the assay component LTEA_HepaRG_CYP1A2 was analyzed into 1 endpoint. […]
Activity calls are given as the source filed them. How the source made its calls: active means hit-call score of the fitted dose curve at least 0.9, where 1 is the maximum; inactive means score below 0.9.
Give one outcome, nothing more. List: 1 (yes) for active, 0 (no) for inactive

Completed entries (count: 5):
MOLECULE	GROUP
O=[N+]([O-])C(CO)(CO)CO	1 (yes)
c1cc(-c2ccncc2)ccn1	1 (yes)
CC=Cc1ccc(O)c(OC)c1	0 (no)
Cc1ccc(C)c(C)c1	0 (no)
O=C(O)CCCCC(=O)O	0 (no)

Record lookup: outcome of this test for Cc1ccc(N(C)C)cc1 ?
1 (yes)

Record lookup: outcome of this test for CC(CO)OC(C)CO (stereo unspecified) (tested in a mixture with another compound) ?
0 (no)

Record lookup: outcome of this test for CCOC(=O)CCC(=O)OCC ?
0 (no)

Record lookup: outcome of this test for CC1(C)NC(=O)NC1=O ?
0 (no)

Record lookup: outcome of this test for COCCOC[C@H](CC1(C(=O)NC2CCC(C(=O)O)CC2)CCCC1)C(=O)Oc1ccc2c(c1)CCC2 (stereo partly specified) ?
0 (no)

Record lookup: outcome of this test for COC(=O)c1ccc(O)cc1 ?
0 (no)

Record lookup: outcome of this test for CN[C@H]1CC[C@@H](c2ccc(Cl)c(Cl)c2)c2ccc(S(N)(=O)=O)cc21 ?
0 (no)

Record lookup: outcome of this test for Nc1ccc2c(c1)C(=O)c1ccccc1C2=O ?
1 (yes)
